Target: Ybr033w (UniProt P38073)
Sequence: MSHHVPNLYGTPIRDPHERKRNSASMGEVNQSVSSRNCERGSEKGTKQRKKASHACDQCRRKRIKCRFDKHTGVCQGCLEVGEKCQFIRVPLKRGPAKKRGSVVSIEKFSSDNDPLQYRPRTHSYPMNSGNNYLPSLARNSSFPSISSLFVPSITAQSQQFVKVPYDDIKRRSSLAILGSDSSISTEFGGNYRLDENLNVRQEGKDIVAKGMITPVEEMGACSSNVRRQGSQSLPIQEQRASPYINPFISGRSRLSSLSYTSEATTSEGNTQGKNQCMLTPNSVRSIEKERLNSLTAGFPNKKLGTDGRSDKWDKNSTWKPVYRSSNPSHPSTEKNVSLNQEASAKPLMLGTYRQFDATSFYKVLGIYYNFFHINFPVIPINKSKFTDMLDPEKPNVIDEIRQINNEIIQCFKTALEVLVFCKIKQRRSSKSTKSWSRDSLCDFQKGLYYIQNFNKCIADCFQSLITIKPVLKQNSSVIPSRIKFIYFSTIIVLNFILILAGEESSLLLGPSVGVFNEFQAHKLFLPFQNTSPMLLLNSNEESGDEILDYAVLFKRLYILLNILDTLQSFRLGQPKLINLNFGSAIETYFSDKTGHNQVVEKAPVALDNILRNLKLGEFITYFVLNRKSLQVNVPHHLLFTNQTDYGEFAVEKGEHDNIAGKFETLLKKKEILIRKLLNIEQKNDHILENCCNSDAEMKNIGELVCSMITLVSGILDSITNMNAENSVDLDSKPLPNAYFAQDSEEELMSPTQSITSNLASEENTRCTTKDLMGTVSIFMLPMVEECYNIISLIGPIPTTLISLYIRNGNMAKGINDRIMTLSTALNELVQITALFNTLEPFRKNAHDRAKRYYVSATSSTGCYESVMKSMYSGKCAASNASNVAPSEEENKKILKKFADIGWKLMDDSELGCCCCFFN
Test: PBM E-score (8-mer binding enrichment) (E-score (-0.5 to 0.5)); higher = stronger / more preferred TF binding
Conditions: protein concentration: 200 nM; construct: GST-full length
In all, about 33,000 sequences were measured (“E-score (-0.5 to 0.5)”: median about -0.012, highest 2% from about 0.29 on). The sample as a whole holds a higher share of the highest values than the screen did.
List of PBM E-score values.

seq string: CAGTCTAG
PBM E-score: -0.137
//
seq string: ACGGCTTG
PBM E-score: -0.0473
//
seq string: AATATTGC
PBM E-score: 0.223
//
seq string: AGTTAAAA
PBM E-score: 0.298
//
seq string: AAATGATG
PBM E-score: 0.248
//
seq string: AGTTAATA
PBM E-score: 0.336
//
seq string: ACTACTAT
PBM E-score: 0.328
//
seq string: AACCTTTC
PBM E-score: -0.0863
//
seq string: ATTGGTCG
PBM E-score: -0.0127
//
seq string: TGTTAAAA
PBM E-score: 0.226
//
seq string: AGCGGCAT
PBM E-score: 0.0383
//
seq string: GAGCGCAA
PBM E-score: -0.0711
//
seq string: GGTTAATA
PBM E-score: 0.209
//
seq string: AATATTGG
PBM E-score: 0.047
//
seq string: AGTTAATG
PBM E-score: 0.216
//
seq string: CGTTAATA
PBM E-score: 0.166
//
seq string: CATATTGA
PBM E-score: 0.0393
//
seq string: ACTACTAA
PBM E-score: 0.173
//
seq string: TACAATCA
PBM E-score: 0.171
//
seq string: GATATTGA
PBM E-score: 0.177
//
seq string: CGTTAAAA
PBM E-score: -0.0301
//
seq string: TGCTACAA
PBM E-score: 0.161
